Reference source for all entries: ChEMBL document CHEMBL1800010

- System: Liver microsomes
- MEASUREMENT_DESCRIPTION: Metabolic stability in rat liver microsomes assessed as norantipyrine formation per mg of protein after 20 mins by HPLC analysis
- Assay type: ADME, Microsome
MEASUREMENT_LABEL: Activity

| MOLECULE | DATA_VALUE |
| --- | --- |
| Cc1cc(=O)n(-c2ccccc2)n1CC(F)(F)F | < 0.1 nmol |
| Cc1cc(=O)n(-c2ccccc2)n1C [ANTIPYRINE] | 27 nmol |
| Cc1cc(=O)n(-c2ccccc2)n1C(C)(C)C | < 0.1 nmol |
| Cc1cc(=O)n(-c2ccccc2)n1-c1ccccc1 | < 0.1 nmol |

====

- Species: Cavia porcellus
- MEASUREMENT_DESCRIPTION: Antigenicity in guinea pig assessed as erythema in abdomen id measured after 24 hrs by skin reaction assay
- CONDITION_DETAILS: in vivo, other

| MOLECULE | Activity |
| --- | --- |
| Cc1cc(=O)n(-c2ccccc2)n1C [ANTIPYRINE] | Toxic |
| Cc1cc(=O)n(-c2ccccc2)n1CC(F)(F)F | Non-toxic |
| Cc1cc(=O)n(-c2ccccc2)n1C(C)(C)C | Non-toxic |
| Cc1cc(=O)n(-c2ccccc2)n1-c1ccccc1 | Non-toxic |
